# assayed-target: Alpha-1A adrenergic receptor (Homo sapiens, UniProt P35348); note: assay procedure not described here
# Sequence (P35348 whole entry): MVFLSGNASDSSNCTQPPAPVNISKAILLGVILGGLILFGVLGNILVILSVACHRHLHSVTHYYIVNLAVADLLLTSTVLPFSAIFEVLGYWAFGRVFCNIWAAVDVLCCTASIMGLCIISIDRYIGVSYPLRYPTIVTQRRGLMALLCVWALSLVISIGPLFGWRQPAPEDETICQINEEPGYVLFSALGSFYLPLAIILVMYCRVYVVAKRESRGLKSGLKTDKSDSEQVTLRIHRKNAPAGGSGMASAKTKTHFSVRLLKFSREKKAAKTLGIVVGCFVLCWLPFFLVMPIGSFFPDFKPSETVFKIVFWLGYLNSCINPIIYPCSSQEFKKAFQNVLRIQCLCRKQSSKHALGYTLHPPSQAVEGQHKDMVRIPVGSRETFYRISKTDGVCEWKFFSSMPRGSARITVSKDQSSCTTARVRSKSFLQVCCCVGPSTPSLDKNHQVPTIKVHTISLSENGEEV
Below: a set of entries, each annotated with reported AC50.

In plain terms, CC(C(=O)O)c1ccc(N2CC=CC2)c(Cl)c1 (centres undefined) [PIRPROFEN] has a documented AC50 of > 10 µM

Data point: CN(C)[C@@H]1C(O)=C(C(N)=O)C(=O)[C@@]2(O)C(O)=C3C(=O)c4c(O)ccc(Cl)c4[C@@H](O)[C@H]3C[C@@H]12 [DEMECLOCYCLINE] ; AC50 = > 10 µM

Data point: CC[C@H](C)C(=O)O[C@H]1C[C@H](O)C=C2C=C[C@H](C)[C@H](CC[C@@H](O)C[C@@H](O)CC(=O)O)[C@H]21 [PRAVASTATIN] ; AC50 = > 10 µM

COC(=O)C1=C(C)NC(C)=C(C(=O)OC(C)C)C1c1cccc2nonc12 (centres undefined) [ISRADIPINE] yielded AC50 of > 30 µM
